Record form. Attribute: cell count. Fill in for each entry.
# experiment notes: viability loss with induced miR-34 in A549 – imaging, A549 dox-inducible miR-34, nuclei and caspase counts, primary screen (AID 1347080); further: test concentration not given here
# condition: A549 miR-34 inducible, Hoechst nuclei count, 48 h; measured here: total cells with miR-34 induction; stronger effect = lower value
*1 amine or outer side, *2 acyl side, *3 side chain or, on linkers, in order; H or OH if unused. Where a SMILES comes first, the peptide text is derived from it. Bridges are numbered along the chain shown (N, C = ends). Roman numbers before positions name the chains, in order. [ ]: non-standard residue; d: D form. Hexamethylenediamine = C(CCCN[*:2])CCN[*:1]; Dip = N[CH](C(=O)O)C(c1ccccc1)c1ccccc1; Chg = N[CH](C(=O)O)C1CCCCC1; NMeA = CN[CH](C)C(=O)O
Answer with a number only.

Q. Can you look up the measured cell count of CN(C)C(=O)c1cc(-c2cnc(-c3ccccn3)nc2)nc2cc(F)ccc12 for me?
A. 8570

Q. Cool, now O=C(O)CCCCC1SC[C@@H]2NC(=O)N[C@H]12 (some centres not stated)
A. 8160

Q. Let us now turn to Cc1ccccc1-n1cc(-c2ccnc(NCCC3(O)CCN(C)CC3)n2)cn1
A. 8470

Q. Further, for COc1ccc2c(c1)c(CC(=O)O)c(C)n2Cc1ccc(Cl)cc1 ?
A. 8600

Q. What do you have for CC(=O)O[C@H]1Cc2ccccc2N(C(N)=O)c2ccccc21 ?
A. 10000

Q. Further, for COc1c(O[C@@H]2O[C@H](CO)[C@@H](O)[C@H](O)[C@H]2O)cc2c(c1OC)-c1ccc(SC)c(=O)cc1C(NC(C)=O)CC2 (some centres not stated) ?
A. 8970

Q. # iterate: COC1C(OC(C)=O)CC(=O)OC(C)CC=CC=CC(O)C(C)CC(CC=O)C1OC1OC(C)C(OC2C[C@@](C)(OC(=O)CC(C)C)C(O)C(C)O2)C(N(C)C)C1O (some centres not stated)
A. 9630

Q. Can you check Nc1ccn(C2OC(CO)C(O)C2(F)F)c(=O)n1 (configuration not stated) next?
A. 1840

Q. COc1cccc(C(=O)NCCN2CCN(c3ccc(Cl)cc3)CC2)c1 ?
A. 9900

Q. Try the compound CCCn1cc(-c2ccnc(NC3CCN(Cc4cccnc4)CC3)n2)c(C)n1
A. 3430

Q. Try this compound next: CC[C@H]1OC(=O)[C@H](C)[C@@H](OC2C[C@@](C)(OC)[C@@H](O)[C@H](C)O2)[C@H](C)[C@@H](O[C@@H]2O[C@H](C)C[C@H](N(C)C)[C@H]2O)[C@](C)(O)C[C@@H](C)/C(=N\OCOCCOC)[C@H](C)[C@@H](O)[C@]1(C)O (some centres not stated)
A. 9320

Q. Can you check Cc1nc(C(=O)O)nn1-c1cc(Cl)cc(Cl)c1 next?
A. 8310

Q. What do we get for CCOC(=O)c1[nH]c2cc(Cl)ccc2c1C(C(=O)NC(C)(C)C)N(C=O)Cc1ccc(Cl)cc1 (configuration not stated) ?
A. 2750

Q. Would you kindly repeat that for CCOc1ccc2ccccc2c1C(=O)NC1C(=O)N2C(C(=O)O)C(C)(C)S[C@H]12 (some centres not stated) ?
A. 8800

Q. Proceed to C#C[C@]1(O)CCC2C3C(C)CC4=C(CCC(=O)C4)C3CC[C@@]21C (some centres not stated)
A. 8730

Q. Param item: C=C1CCC(O)CC1=CC=C1CCC[C@@]2(C)[C@H]1CC[C@H]2C(C)CCCC(C)(C)O (some centres not stated)
A. 7650

Q. Check Cc1cc(CN(C)C(=O)c2cc(-c3cnn(C(C)C)c3)nc3cc(F)ccc23)on1 too.
A. 8520

Q. And then O=S(=O)(O)CCN1CCOCC1 , what is it?
A. 8760

Q. Try Cc1nc(C#Cc2ccnc(Cl)c2)c(C)n1-c1ccc(OC(F)(F)F)cc1 next.
A. 6890

Q. Another compound to look at: CCNC(=O)CCCC=CCC1C(O)CC(O)C1C=CC(O)CCc1ccccc1 (configuration not stated)
A. 6700

Q. Next record, please: NC(Cc1c[nH]c2ccc(O)cc12)C(=O)O (configuration not stated)
A. 8790

Q. Entry C=CCOc1ccccc1OCC(O)CNC(C)C (configuration not stated) please
A. 9530

Q. O=C(NCc1ccccn1)c1ccc(Oc2ccccc2)cc1 ?
A. 8650

Q. What about this compound? NC(CCCP(=O)(O)O)C(=O)O (configuration not stated)
A. 10400

Q. Same question, CN(CCc1ccccn1)C(=O)c1ccc2sc(N)nc2c1 this time
A. 8380

Q. Again, but for CC1CC(=O)NN=C1c1ccc(NN=C(C#N)C#N)cc1 (configuration not stated)
A. 8280

Q. And N#CC(=C1SCC(c2ccc(Cl)cc2Cl)S1)n1ccnc1 (configuration not stated) ?
A. 8130

Q. Can you handle Cc1[nH]c(C=C2C(=O)Nc3ccc(S(=O)(=O)N(C)c4cccc(Cl)c4)cc32)c(C)c1C(=O)N1CCN(C)CC1 next?
A. 3050

Q. Also check COc1cccc(OC)c1-c1ccc(C(=O)Nc2cccnc2)o1
A. 7930

Q. Check O=C(C=Cc1cccc(S(=O)(=O)Nc2ccccc2)c1)NO too.
A. 1120

Q. Cool, now CNC(C)C(=O)NC(C(=O)N1CCCC1C(=O)NC(C(=O)NCCCCCCNC(=O)C(NC(=O)C1CCCN1C(=O)C(NC(=O)C(C)NC)C1CCCCC1)C(c1ccccc1)c1ccccc1)C(c1ccccc1)c1ccccc1)C1CCCCC1 (configuration not stated) (I: H-[NMeA][Chg]P[Dip] / II: H-[NMeA][Chg]P[Dip]; linker I:C-II:C via Hexamethylenediamine; configuration not given here)
A. 8750

Q. And NC1C=CC=C(C(=O)O)C1 (configuration not stated) ?
A. 9940

Q. What about this compound? Cc1ccc(NC(=O)c2ccc(CN3CCN(C)CC3)cc2)cc1Nc1nc(-c2cccnc2)cs1
A. 5500

Q. Do the same for O=C(O)c1sccc1S(=O)(=O)Nc1ccc(Cl)cc1 please
A. 8810

Q. Same lookup for CCCCN(Cc1ccc(C(=O)NO)cc1)C(=O)Nc1ccccc1 , please.
A. 4530

Q. Then what about the compound CC(C)(C)NC(=O)C1CCC2C3CCC4NC(=O)C=C[C@]4(C)C3CC[C@]12C (some centres not stated) ?
A. 8850

Q. Also CC(=O)OC1C[C@@H]2CC[C@@H]3[C@@H](CC[C@]4(C)C(OC(C)=O)C([N+]5(C)CCCCC5)C[C@@H]34)[C@@]2(C)CC1N1CCCCC1 (some centres not stated) , if possible.
A. 8090
